assay: Fraction unbound in rat plasma; format: ADME, cell-free
observed property: fraction unbound
Respond numerically, and do not add a unit to the figure.

Could you share which fraction unbound value was measured for `Cc1nc2c(c(-c3ccn[nH]3)n1)CCN(C(=O)c1cccc(C(F)(F)F)c1Cl)C2` ?
0.074

----------
Reported IC50 values for the following compounds.
target: P2X purinoceptor 7 (Homo sapiens); assay: Antagonist activity at human P2X7 receptor expressed in HEK293 cells assessed as inhibition of BzATP-induced pore formation incubated for 20 mins followed by stimulation with BzATP for 30 mins by YO-PRO dye based fluorescence plate reader method; assay type: cell-based
Sequence (Q99572 whole entry): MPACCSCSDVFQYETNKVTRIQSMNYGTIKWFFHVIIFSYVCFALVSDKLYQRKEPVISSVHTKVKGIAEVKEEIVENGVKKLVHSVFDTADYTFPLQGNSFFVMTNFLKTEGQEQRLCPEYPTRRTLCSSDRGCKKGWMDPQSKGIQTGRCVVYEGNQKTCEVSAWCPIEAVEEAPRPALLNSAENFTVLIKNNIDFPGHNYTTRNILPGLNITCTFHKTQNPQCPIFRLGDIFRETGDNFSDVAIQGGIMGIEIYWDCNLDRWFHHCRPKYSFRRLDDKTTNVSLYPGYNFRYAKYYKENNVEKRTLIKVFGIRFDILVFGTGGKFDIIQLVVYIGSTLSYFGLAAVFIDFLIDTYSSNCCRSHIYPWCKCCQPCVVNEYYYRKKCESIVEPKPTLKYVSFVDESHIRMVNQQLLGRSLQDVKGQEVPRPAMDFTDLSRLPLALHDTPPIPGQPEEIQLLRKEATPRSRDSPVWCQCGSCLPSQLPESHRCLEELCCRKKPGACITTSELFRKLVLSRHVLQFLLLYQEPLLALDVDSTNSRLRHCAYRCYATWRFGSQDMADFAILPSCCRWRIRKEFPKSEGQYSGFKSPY

{"compound": "CN(C)C(=O)CCNc1ccc2c(C(=O)NCC3CCC(F)(F)CC3)c(Cl)ccc2n1", "result": "< 10 nM"}

Recorded IC50 for C[C@H]1CC[C@@](O)(CNC(=O)c2cc(C3CCOC3)n3cccc(Cl)c23)CC1 (some centres not stated) , please?
< 10 nM

----------
# efflux ratio at 10 µM listing for each entry below
experiment: Efflux ratio of apparent permeability from basolateral to apical over apical to basolateral side in human Caco2 cells at 10 uM after 40 to 60 mins by LC-MS/MS analysis; type: ADME, cell-based; conditions: Caco-2
// no unit string in output, number only

Field: example entries. Status: answers known.
{"structure smiles": "CC(C)(C)c1nnc2n1CCN(C(=O)c1cccc(C(F)(F)F)c1Cl)[C@@H]2c1ccccc1", "efflux ratio at 10 µM": 2}
{"structure smiles": "O=C(c1cccc(C(F)(F)F)c1Cl)N1CCn2cnnc2[C@H]1c1ccccc1", "efflux ratio at 10 µM": 4.5}
{"structure smiles": "CCCCc1nnc2n1CCN(C(=O)c1cccc(C(F)(F)F)c1Cl)[C@@H]2c1ccccc1", "efflux ratio at 10 µM": 1.22}
{"structure smiles": "O=C(c1cccc(C(F)(F)F)c1Cl)N1CCn2c(nnc2C(F)(F)F)[C@H]1c1ccccc1", "efflux ratio at 10 µM": 0.75}
{"structure smiles": "Cc1nnc2n1CCN(C(=O)c1cccc(C(F)(F)F)c1Cl)[C@@H]2c1ccccc1", "efflux ratio at 10 µM": 5.1}

Which efflux ratio at 10 µM reading was recorded for the compound `O=C(c1cccc(C(F)(F)F)c1Cl)N1CCn2c(C3CC3)nnc2[C@H]1c1ccccc1` ?
3.33

Recorded efflux ratio at 10 µM of `CCc1nnc2n1CCN(C(=O)c1cccc(C(F)(F)F)c1Cl)[C@@H]2c1ccccc1` , please.
3.24

----------
test: Cmax in dog at 2.5 mg/kg, po; format: ADME, organism-based, Canis lupus familiaris; design: dose 2.5 mg/kg, route oral; conditions: in vivo
observed property: Cmax (nM)
Write the value in nM as a bare number.

What does the record list as Cmax for `Cc1nc2c(c(-c3ccn[nH]3)n1)C[C@@H](C)N(C(=O)c1cccc(C(F)(F)F)c1Cl)C2` ?
571

----------
assay: Ratio of drug level in brain to plasma in rat at 10 mg/kg, po; type: ADME, organism-based; conditions: read-out: BPR
observed property: Kp
Lab note: jot down the number only; don't add units.

Returns the measured Kp for the input compound. Input: `O=C(c1cccc(C(F)(F)F)c1Cl)N1CCn2c(nnc2C(F)(F)F)[C@H]1c1ccccc1`
0.5

----------
assay: Oral bioavailability in dog at 2.5 mg/kg; type: ADME, organism-based, Canis lupus familiaris; conditions: in vivo
observed property: bioavailability (%)
Report as a plain number; the unit % is understood.

Find the recorded bioavailability belonging to `Cc1nc2c(c(-c3ccn[nH]3)n1)C[C@@H](C)N(C(=O)c1cccc(C(F)(F)F)c1Cl)C2` and report it.
35
